- Test system: SR
- experimentalProtocol: cells
- cond: Homo sapiens
readout: pIC50
pIC50 (log units): -log10 of the concentration in mol/L.

N#Cc1c(-c2ccc(Cl)cc2)nc(N/N=C/c2cccc(Cl)c2)nc1N1CCOCC1    7.00

Prompt: Requested read-out pIC50, target or system SR, entry "O=c1[nH]cc(F)c(=O)[nH]1"
Response: 5.13

Prompt: Requested read-out pIC50, target or system SR, entry "COc1cccc2c1C(=O)c1c(O)c3c(c(O)c1C2=O)C[C@@](O)(C(=O)CO)C[C@@H]3O[C@H]1C[C@H](N)[C@H](O)[C@H](C)O1"
Response: 6.23

Prompt: Requested read-out pIC50, target or system SR, entry "N#Cc1c(-c2ccc(Cl)cc2)nc(N/N=C/c2cccc(O)c2)nc1N1CCOCC1"
Response: 7.05

Prompt: Requested read-out pIC50, target or system SR, entry "COc1cc(/C=N/Nc2nc(-c3ccc(Cl)cc3)c(C#N)c(N3CCOCC3)n2)cc(OC)c1OC"
Response: 6.46

Prompt: Requested read-out pIC50, target or system SR, entry "N#Cc1c(-c2ccc(Cl)cc2)nc(N/N=C/c2ccc[nH]2)nc1N1CCOCC1"
Response: 6.11

meta.source: ChEMBL document CHEMBL5376013
